Cited source: PubChem BioAssay AID1963960

Test system: MDA-MB-468 spheroids with HUVEC/MSC, viability
Test: Anticancer human tumor MDA-MB-468 cell line growth inhibition [PI3K];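 also: spheroids exposed to agents for seven days before readout; 100% = DMSO vehicle control viability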
Conditions: second compound 0.316 µM; first compound 0.000316 µM; stronger effect = lower value
Property: viability, T/C; scope: individual molecules
Field format: number, assumed %, no unit text.

QUERY: // query viability, T/C value for entry CC(C)n1nc(-c2ccc3oc(N)nc3c2)c2c(N)ncnc21 + CC(Nc1ncnc2nc[nH]c12)c1cc2cccc(Cl)c2c(=O)n1-c1ccccc1
RESULT: 91.6

Continuing:
QUERY: // query viability, T/C value for entry CC(=O)c1c(C)c2cnc(Nc3ccc(N4CCNCC4)cn3)nc2n(C2CCCC2)c1=O + COc1c(OCCCN2CCOCC2)ccc2c3n(c(=NC(=O)c4cnc(N)nc4)nc12)CCN3
RESULT: 26.6

QUERY: // query viability, T/C value for entry CC(=O)c1c(C)c2cnc(Nc3ccc(N4CCNCC4)cn3)nc2n(C2CCCC2)c1=O + Cc1nc(NC(=O)N2CCCC2C(N)=O)sc1-c1ccnc(C(C)(C)C(F)(F)F)c1
RESULT: 96.2

QUERY: // query viability, T/C value for entry Cn1ncnc1[C@H]1c2n[nH]c(=O)c3cc(F)cc(c23)N[C@@H]1c1ccc(F)cc1 + COc1c(OCCCN2CCOCC2)ccc2c3n(c(=NC(=O)c4cnc(N)nc4)nc12)CCN3
RESULT: 29.5

QUERY: // query viability, T/C value for entry CC(=O)c1c(C)c2cnc(Nc3ccc(N4CCNCC4)cn3)nc2n(C2CCCC2)c1=O + CC(Nc1ncnc2nc[nH]c12)c1cc2cccc(Cl)c2c(=O)n1-c1ccccc1
RESULT: 84.7

QUERY: // query viability, T/C value for entry Cn1ncnc1[C@H]1c2n[nH]c(=O)c3cc(F)cc(c23)N[C@@H]1c1ccc(F)cc1 + CC(Nc1ccc2c(c1)OCCn1cc(N3C(=O)OCC3C(F)F)nc1-2)C(N)=O
RESULT: 93.4

====

Property: viability, T/C; scope: individual compounds
Test system: MDA-MB-468 spheroids with HUVEC/MSC, viability
Assay: Anticancer human tumor MDA-MB-468 cell line growth inhibition [PI3K];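 also: spheroids exposed to agents for seven days before readout; 100% = DMSO vehicle control viability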
Conditions: second compound 0.00316 µM; first compound 0.001 µM; stronger effect = lower value

Some solved entries appear below for comparison.
QUERY: // query viability, T/C value for entry CC(C)n1nc(-c2ccc3oc(N)nc3c2)c2c(N)ncnc21 + COc1c(OCCCN2CCOCC2)ccc2c3n(c(=NC(=O)c4cnc(N)nc4)nc12)CCN3
RESULT: 87%

QUERY: // query viability, T/C value for entry Cn1ncnc1[C@H]1c2n[nH]c(=O)c3cc(F)cc(c23)N[C@@H]1c1ccc(F)cc1 + CC(Nc1ccc2c(c1)OCCn1cc(N3C(=O)OCC3C(F)F)nc1-2)C(N)=O
RESULT: 87.6%

QUERY: // query viability, T/C value for entry CC(=O)c1c(C)c2cnc(Nc3ccc(N4CCNCC4)cn3)nc2n(C2CCCC2)c1=O + CC(Nc1ccc2c(c1)OCCn1cc(N3C(=O)OCC3C(F)F)nc1-2)C(N)=O
RESULT: 95.3%

QUERY: // query viability, T/C value for entry Cn1ncnc1[C@H]1c2n[nH]c(=O)c3cc(F)cc(c23)N[C@@H]1c1ccc(F)cc1 + COc1c(OCCCN2CCOCC2)ccc2c3n(c(=NC(=O)c4cnc(N)nc4)nc12)CCN3
RESULT: 89%

QUERY: // query viability, T/C value for entry CC(C)n1nc(-c2ccc3oc(N)nc3c2)c2c(N)ncnc21 + CC(Nc1ccc2c(c1)OCCn1cc(N3C(=O)OCC3C(F)F)nc1-2)C(N)=O
RESULT: 100%

Continuing:
QUERY: // query viability, T/C value for entry CC(=O)c1c(C)c2cnc(Nc3ccc(N4CCNCC4)cn3)nc2n(C2CCCC2)c1=O + COc1c(OCCCN2CCOCC2)ccc2c3n(c(=NC(=O)c4cnc(N)nc4)nc12)CCN3
RESULT: 92.6%

====

Tested on: MDA-MB-468 spheroids with HUVEC/MSC, viability
Experiment: Anticancer human tumor MDA-MB-468 cell line growth inhibition [PI3K];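 also: spheroids exposed to agents for seven days before readout; 100% = DMSO vehicle control viability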
Details: second compound 0.0316 µM; first compound 0.0316 µM; stronger effect = lower value
Property: viability, T/C; scope: individual compounds

Some solved entries appear below for comparison.
QUERY: // query viability, T/C value for entry CC(=O)c1c(C)c2cnc(Nc3ccc(N4CCNCC4)cn3)nc2n(C2CCCC2)c1=O + Cc1nc(NC(=O)N2CCCC2C(N)=O)sc1-c1ccnc(C(C)(C)C(F)(F)F)c1
RESULT: 70.7%

QUERY: // query viability, T/C value for entry Cn1ncc(Cl)c1-c1cc(C(=O)NC(CN)Cc2cccc(F)c2)sc1Cl (stereo unspecified) + CC(Nc1ccc2c(c1)OCCn1cc(N3C(=O)OCC3C(F)F)nc1-2)C(N)=O
RESULT: 91.2%

QUERY: // query viability, T/C value for entry CC(=O)c1c(C)c2cnc(Nc3ccc(N4CCNCC4)cn3)nc2n(C2CCCC2)c1=O + COc1c(OCCCN2CCOCC2)ccc2c3n(c(=NC(=O)c4cnc(N)nc4)nc12)CCN3
RESULT: 83.2%

QUERY: // query viability, T/C value for entry C=CC(=O)N1CCN(c2nc(=O)n(-c3c(C)ccnc3C(C)C)c3nc(-c4c(O)cccc4F)c(F)cc23)C(C)C1 (stereo unspecified) + Cc1nc(NC(=O)N2CCCC2C(N)=O)sc1-c1ccnc(C(C)(C)C(F)(F)F)c1
RESULT: 94.9%

QUERY: // query viability, T/C value for entry CC1(C)CCC(CN2CCN(c3ccc(C(=O)NS(=O)(=O)c4ccc(NCC5CCOCC5)c([N+](=O)[O-])c4)c(Oc4cnc5[nH]ccc5c4)c3)CC2)=C(c2ccc(Cl)cc2)C1 + CC(Nc1ccc2c(c1)OCCn1cc(N3C(=O)OCC3C(F)F)nc1-2)C(N)=O
RESULT: 97.6%

QUERY: // query viability, T/C value for entry CNC(=O)c1ccc(N2C(=S)N(c3ccc(C#N)c(C(F)(F)F)c3)C(=O)C2(C)C)cc1F + CC(Nc1ncnc2nc[nH]c12)c1cc2cccc(Cl)c2c(=O)n1-c1ccccc1
RESULT: 78.9%

QUERY: // query viability, T/C value for entry C#Cc1c(F)ccc2cc(O)cc(-c3ncc4c(N5CC6CCC(C5)N6)nc(OCC56CCCN5CC(F)C6)nc4c3F)c12 (stereo unspecified) + CC(Nc1ccc2c(c1)OCCn1cc(N3C(=O)OCC3C(F)F)nc1-2)C(N)=O
RESULT: 91.4%

QUERY: // query viability, T/C value for entry CCCS(=O)(=O)Nc1ccc(F)c(C(=O)c2c[nH]c3ncc(-c4ccc(Cl)cc4)cc23)c1F + COc1c(OCCCN2CCOCC2)ccc2c3n(c(=NC(=O)c4cnc(N)nc4)nc12)CCN3
RESULT: 74.1%

QUERY: // query viability, T/C value for entry CC(=O)c1c(C)c2cnc(Nc3ccc(N4CCNCC4)cn3)nc2n(C2CCCC2)c1=O + CC(Nc1ncnc2nc[nH]c12)c1cc2cccc(Cl)c2c(=O)n1-c1ccccc1
RESULT: 99.7%

QUERY: // query viability, T/C value for entry Cn1ncnc1[C@H]1c2n[nH]c(=O)c3cc(F)cc(c23)N[C@@H]1c1ccc(F)cc1 + CC(Nc1ncnc2nc[nH]c12)c1cc2cccc(Cl)c2c(=O)n1-c1ccccc1
RESULT: 68.1%

Shift focus to the following entry.
QUERY: // query viability, T/C value for entry CNC(=O)c1ccc(N2C(=S)N(c3ccc(C#N)c(C(F)(F)F)c3)C(=O)C2(C)C)cc1F + Cc1nc(NC(=O)N2CCCC2C(N)=O)sc1-c1ccnc(C(C)(C)C(F)(F)F)c1
RESULT: 96.8%

====

Test system: MDA-MB-468 spheroids with HUVEC/MSC, viability
Test: Anticancer human tumor MDA-MB-468 cell line growth inhibition [PI3K]; active means viability on the fitted dose curve at most 10% of control; inactive means the rest;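 also: spheroids exposed to agents for seven days before readout; 100% = DMSO vehicle control viability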
Details: second compound 0.0316 µM; first compound 10 µM
Use one of these outcomes when replying: active, inactive

QUERY: Check the results log: what was the call for CCCS(=O)(=O)Nc1ccc(F)c(C(=O)c2c[nH]c3ncc(-c4ccc(Cl)cc4)cc23)c1F + Cc1nc(NC(=O)N2CCCC2C(N)=O)sc1-c1ccnc(C(C)(C)C(F)(F)F)c1 ?
RESULT: inactive

Continuing:
QUERY: Check the results log: what was the call for Cn1ncc(Cl)c1-c1cc(C(=O)NC(CN)Cc2cccc(F)c2)sc1Cl (stereo not drawn) + CC(Nc1ccc2c(c1)OCCn1cc(N3C(=O)OCC3C(F)F)nc1-2)C(N)=O ?
RESULT: active

QUERY: Check the results log: what was the call for C=CC(=O)N1CCN(c2nc(=O)n(-c3c(C)ccnc3C(C)C)c3nc(-c4c(O)cccc4F)c(F)cc23)C(C)C1 (stereo not drawn) + COc1c(OCCCN2CCOCC2)ccc2c3n(c(=NC(=O)c4cnc(N)nc4)nc12)CCN3 ?
RESULT: inactive
